- method.summary: Evaluation of compounds pharmacokinetics in mice
- Format: in vivo
- test.settings: mouse, plasma, po; female C57BL/6 mice; intragastric vs tail vein
readout.kind: bioavailability (%)
// return numeric value only (unit: %, not printed)

Qu. What does the data say about its bioavailability? Entry: `CO[C@H](C(=O)Nc1nnc(NC2CCN(c3cccnn3)CC2)s1)c1cc(OC(F)(F)F)ccc1F`
Ans. 91.3
